# Test system: Escherichia coli TOP10;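 further: peptides expressed intracellularly from a pBAD plasmid library in pooled LB shake-flask culture, induced with 0.3% L-arabinose, DNA abundance read by NGS, three biological replicates, DESeq2 with apeglm shrinkage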
# measurement.notes: shrunken log2 fold change of peptide-encoding DNA abundance (4.5 h post-induction vs induction); higher = less antimicrobial activity (less host growth inhibition)
# condition.info: time post-induction: 4.5 h; library: site-saturation at positions 5, 18, 19, 20
Please note: condition met applies when shrunken log2 fold change is -0.2 or greater, and condition not met applies otherwise.

Please review the entries below; each comes with its answer.
[[record]]
sequence_record = "RRIRHRPPRLPRPRPRPEHKPRP"
cat = "condition met"

[[record]]
sequence_record = "RRIRFRPPRLPRPRPRPFGTPRP"
cat = "condition not met"

[[record]]
sequence_record = "RRIRKRPPRLPRPRPRPWIQPRP"
cat = "condition met"

[[record]]
sequence_record = "RRIRFRPPRLPRPRPRPNNNPRP"
cat = "condition not met"

[[record]]
sequence_record = "RRIRCRPPRLPRPRPRPYKHPRP"
cat = "condition not met"


Query string: Is shrunken log2 fold change at least -0.2? Consider RRIRCRPPRLPRPRPRPPWKPRP
Result string: condition met

Query string: Textbook exercise: given the entry RRIRWRPPRLPRPRPRPCFRPRP , state whether its shrunken log2 fold change is greater than or equal to -0.2.
Result string: condition met

Query string: Check this sequence for shrunken log2 fold change at or above -0.2: RRIRERPPRLPRPRPRPTDPPRP
Result string: condition met

Query string: Test whether the sequence RRIRDRPPRLPRPRPRPCRWPRP records shrunken log2 fold change of -0.2 or higher.
Result string: condition not met

Query string: Hello, I need to know if RRIRFRPPRLPRPRPRPSQHPRP has measured shrunken log2 fold change not below -0.2. Thanks!
Result string: condition not met

Query string: Textbook exercise: given the entry RRIRDRPPRLPRPRPRPGEFPRP , state whether its shrunken log2 fold change is greater than or equal to -0.2.
Result string: condition met

Query string: Kindly determine if shrunken log2 fold change recorded for RRIRGRPPRLPRPRPRPCMKPRP is above or exactly -0.2.
Result string: condition met

Query string: Confirm if shrunken log2 fold change reported for the sequence RRIRDRPPRLPRPRPRPQLSPRP is -0.2 or above.
Result string: condition met
